Cited source for all entries: PubChem BioAssay

Target: Potassium voltage-gated channel subfamily KQT member 1 (Homo sapiens)
Test: KCNQ1 potassium channel potentiators, confirmation, FluxOR thallium flux, CHO cells, duplicates (AID 493007);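 for outcome: cells depolarized by a potassium plus thallium sulfate stimulus after compound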
Details: KCNQ1 cell line, FluxOR thallium flux fluorescence, at 10 µM, % of reference activator effect, buffer zero
Activity calls are given as the source filed them.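 Rule for the calls: active = potentiation averaged over duplicate wells exceeding buffer-only control mean by more than 3 SD; inactive = the rest.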
Hello, when you answer, please use one of the following outcomes: Y = active, N = inactive

INPUT: # outcome recorded in this test, key = O=C(NC(=S)N1CCN(c2nc(-c3ccccc3)cs2)CC1)c1cncc(Br)c1
OUTPUT: Y

INPUT: Dear colleague, could you share the recorded outcome for O=C(CCN1CCCCCC1)Nc1ccc(F)cc1 when you have a moment?
OUTPUT: N

INPUT: Tell me the recorded outcome of this test for CCOC(=O)c1c(NS(C)(=O)=O)sc2c1CCC(C)C2 (stereo unspecified) .
OUTPUT: Y

INPUT: Can you look up the reported call for O=[N+]([O-])c1cc(C(F)(F)F)ccc1Oc1cccnc1[N+](=O)[O-] for me?
OUTPUT: N

INPUT: I'd appreciate the recorded outcome for Cc1cccc(C)c1OCc1cc(C(=O)N(C)Cc2cc(C3CC3)n[nH]2)no1 from this test.
OUTPUT: N

INPUT: What did the test return for CCc1ccc(NC(=O)C2CCN(C(=O)[C@@H]3Cc4ccccc4CN3)CC2)cc1 ?
OUTPUT: N
